Data provenance is patent US20230019491A1.

- assayed.system: IKKε (Homo sapiens, UniProt Q14164)
- Sequence (Q14164 1-716): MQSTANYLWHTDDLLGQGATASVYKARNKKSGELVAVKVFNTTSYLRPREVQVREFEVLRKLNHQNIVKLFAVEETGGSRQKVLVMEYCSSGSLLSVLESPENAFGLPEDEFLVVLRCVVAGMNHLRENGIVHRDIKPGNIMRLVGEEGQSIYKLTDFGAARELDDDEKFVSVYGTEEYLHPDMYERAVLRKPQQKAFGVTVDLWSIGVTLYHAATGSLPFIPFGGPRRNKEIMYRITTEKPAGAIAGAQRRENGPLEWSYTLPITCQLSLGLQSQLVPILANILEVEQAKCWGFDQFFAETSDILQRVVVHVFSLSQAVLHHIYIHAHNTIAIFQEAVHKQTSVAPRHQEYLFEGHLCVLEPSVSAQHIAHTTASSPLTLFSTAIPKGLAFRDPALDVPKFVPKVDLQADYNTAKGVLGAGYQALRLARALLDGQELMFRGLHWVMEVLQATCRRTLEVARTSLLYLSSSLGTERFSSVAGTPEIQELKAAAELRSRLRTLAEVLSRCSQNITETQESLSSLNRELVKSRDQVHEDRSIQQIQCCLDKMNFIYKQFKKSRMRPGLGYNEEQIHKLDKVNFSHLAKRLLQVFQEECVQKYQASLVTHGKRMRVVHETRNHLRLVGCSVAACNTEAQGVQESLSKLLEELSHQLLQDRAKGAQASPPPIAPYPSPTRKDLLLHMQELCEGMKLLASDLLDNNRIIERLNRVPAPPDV
- assay.comment: IKKε biochemical assay
- assay.context: 10 point 1:4 dose response, 30 uM top concentration, 90 min at 25° C., LabChip EZ Reader II; read-out: IKKε_IC50
Recorded IC50 by entry

Solved cases below.
Entry COc1nc(Nc2nccc(-c3ccc(OCC4CN(C(=O)[C@@H](C)O)C4)c(C#N)c3)n2)ccc1N1CCN(C2COC2)CC1 : reported IC50 = ? 100 to 1000 nM

Give its IC50 value. Item: COc1nc(C(=O)N(C)C)ccc1Nc1nccc(-c2ccc(NC3CCOCC3)c(C#N)c2)n1 100 to 1000 nM

Returns the measured IC50 for the input compound. Input: COc1nc(Nc2nccc(-c3ccc(NC4CCOCC4)c(C#N)c3)n2)ccc1C(=O)N(C)C < 100 nM

--- query ---
Entry COc1nc(Nc2nccc(-c3ccc(O[C@H]4CCN(C(=O)[C@H](C)O)C[C@@H]4F)c(C#N)c3)n2)ccc1C1CCN(C2COC2)CC1 : reported IC50 = ? < 100 nM

---

- assayed.system: TBK1 (Homo sapiens)
- assay.comment: TBK biochemical assay
- assay.context: 10 point 1:4 dose response, 30 uM top concentration, 90 min at 25° C., LabChip EZ Reader II; read-out: TBK1_IC50
metric: IC50

Past entries and their recorded results:
I am curious: what IC50 value has been reported for CN1CCN(c2ccc(Nc3nccc(-c4ccc(OC5CCOCC5)c(C#N)c4)n3)nc2)CC1 [Example 164] ? < 100 nM

Please look up its IC50: COc1nc(Nc2nccc(-c3ccc(OC4COC4)c(C#N)c3)n2)ccc1N1CCN(C2COC2)CC1 [Example 160] 100 to 1000 nM

Give the measured IC50 of COc1nc(Nc2nccc(-c3ccc(OC4CCN(C(=O)[C@H](O)C(C)C)CC4(F)F)c(C#N)c3)n2)ccc1C1CCN(C2COC2)CC1 (stereo partly shown) [Example 238] . 100 to 1000 nM

Consider the molecule COc1nc(Nc2nccc(-c3ccc(OC4CCN(C(=O)[C@@H](C)O)CC4(F)F)c(C#N)c3)n2)ccc1N1CCN(C2COC2)[C@H](C)C1 (stereo partly shown) [Example 126] and give its measured IC50. < 100 nM

***
Given the entry COc1nc(Nc2nccc(-c3cc(C#N)c(OC4CCN(C(=O)[C@H](C)O)CC4(F)F)cc3C)n2)ccc1N1CCN(C2COC2)CC1 (stereo partly shown) [Example 307] , report its measured IC50. < 100 nM

For the molecule shown here, COc1nc(Nc2nccc(-c3ccc(OC4CCN(C(=O)C(C)O)CC4(F)F)c(C#N)c3)n2)ccc1C1CCN(C2COC2)CC1 (stereo not shown) [Example 329] , give the reported IC50. < 100 nM

Bench note: what IC50 did CN(C)C(=O)c1ccc(Nc2nccc(-c3ccc(OC4CCOCC4)c(C#N)n3)n2)cn1 [Example 28] show? < 100 nM

Requested field: IC50. Item: COc1cc(Nc2nccc(-c3ccc(O[C@H]4CCN(C(=O)[C@@H](C)O)CC4(F)F)c(C#N)c3)n2)ccn1 [Example 230] 100 to 1000 nM

So what's the measured IC50 for this one? COc1nc(Nc2ncc(C)c(-c3ccc(O[C@@H]4CCN(C(=O)[C@H](C)O)CC4(F)F)c(C#N)c3)n2)ccc1N1CCN(C2COC2)CC1 [Example 285] 100 to 1000 nM

I would be grateful if you could share the reported IC50 for N#Cc1cc(-c2ccnc(Nc3ccc(C4CCN(C5COC5)CC4)cc3)n2)ccc1OC1CCOCC1 [Example 151] . < 100 nM

---

- assayed.system: UniProt Q14164
- Sequence (Q14164 1-716): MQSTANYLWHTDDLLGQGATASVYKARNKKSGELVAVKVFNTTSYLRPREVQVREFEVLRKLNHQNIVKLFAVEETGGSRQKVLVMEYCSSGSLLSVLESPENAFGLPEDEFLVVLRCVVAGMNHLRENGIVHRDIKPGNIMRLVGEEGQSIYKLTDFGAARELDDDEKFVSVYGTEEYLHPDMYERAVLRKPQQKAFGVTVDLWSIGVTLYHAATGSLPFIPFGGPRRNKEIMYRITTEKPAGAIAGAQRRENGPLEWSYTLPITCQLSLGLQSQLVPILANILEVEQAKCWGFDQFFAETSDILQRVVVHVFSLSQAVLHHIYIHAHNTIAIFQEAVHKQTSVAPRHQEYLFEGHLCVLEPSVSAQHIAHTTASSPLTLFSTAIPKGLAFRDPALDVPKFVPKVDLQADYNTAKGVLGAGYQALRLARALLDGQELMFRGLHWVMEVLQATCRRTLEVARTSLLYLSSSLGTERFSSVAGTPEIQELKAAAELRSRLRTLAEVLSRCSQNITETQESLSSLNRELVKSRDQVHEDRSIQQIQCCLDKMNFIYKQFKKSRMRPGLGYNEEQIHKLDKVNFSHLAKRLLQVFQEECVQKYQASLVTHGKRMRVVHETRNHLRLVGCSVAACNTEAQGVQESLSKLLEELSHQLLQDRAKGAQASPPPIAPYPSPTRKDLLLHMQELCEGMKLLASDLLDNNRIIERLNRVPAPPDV
- assay.comment: IKKε biochemical assay
- assay.context: 10 point 1:4 dose response, 30 uM top concentration, 90 min at 25° C., LabChip EZ Reader II; read-out: IKKε_IC50
pIC50: −log10 of the molar value.
Entries and their pIC50

Examples with their reported pIC50 follow.
# query: pIC50 of entry COc1nccc(Nc2nccc(-c3ccc(OC4CCNCC4(F)F)c(C#N)c3)n2)n1 (centres unmarked) 6.00 to 7.00

Bench note: what pIC50 did Cc1nc(C(=O)N2CCC(Oc3ccc(-c4ccnc(Nc5ccc(N6CCN(C7COC7)CC6)cc5)n4)cc3C#N)CC2)c[nH]1 show? > 7.00

New cases:
Given COc1nc(Nc2nccc(-c3ccc(OC4CCN(C(=O)[C@@H](O)CO)CC4(F)F)c(C#N)c3)n2)ccc1N1CCN(C2COC2)[C@H](C)C1 (some centres unmarked) , state its recorded pIC50. > 7.00

Consider the molecule N#Cc1cc(-c2ccnc(Nc3cccc(C4CCN(C(CO)CO)CC4)c3)n2)ccc1OC1CCNCC1(F)F (centres unmarked) and give its measured pIC50. > 7.00

---

- assayed.system: TBK1 (Homo sapiens, UniProt Q9UHD2)
- Sequence (Q9UHD2 whole entry, species assumed): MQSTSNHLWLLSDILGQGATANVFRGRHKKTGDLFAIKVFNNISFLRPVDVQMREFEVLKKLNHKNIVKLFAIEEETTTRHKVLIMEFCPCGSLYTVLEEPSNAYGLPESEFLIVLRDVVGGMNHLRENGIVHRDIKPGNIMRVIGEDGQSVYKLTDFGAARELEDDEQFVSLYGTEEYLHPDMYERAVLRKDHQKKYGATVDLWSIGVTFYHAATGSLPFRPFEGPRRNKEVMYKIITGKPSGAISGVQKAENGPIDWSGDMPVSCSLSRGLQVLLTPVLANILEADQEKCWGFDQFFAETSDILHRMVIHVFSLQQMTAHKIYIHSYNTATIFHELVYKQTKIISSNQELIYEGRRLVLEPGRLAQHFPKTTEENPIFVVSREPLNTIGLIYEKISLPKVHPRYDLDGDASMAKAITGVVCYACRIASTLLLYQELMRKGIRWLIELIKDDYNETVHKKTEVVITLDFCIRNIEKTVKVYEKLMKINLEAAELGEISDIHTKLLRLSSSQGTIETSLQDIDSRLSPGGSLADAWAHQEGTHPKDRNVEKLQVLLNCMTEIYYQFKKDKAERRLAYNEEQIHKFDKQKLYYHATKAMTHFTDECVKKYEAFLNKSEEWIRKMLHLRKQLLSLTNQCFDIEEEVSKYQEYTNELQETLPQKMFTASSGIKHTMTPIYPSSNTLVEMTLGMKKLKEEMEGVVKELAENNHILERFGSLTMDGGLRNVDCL
- assay.comment: TBK biochemical assay
- assay.context: 10 point 1:4 dose response, 30 uM top concentration, 90 min at 25° C., LabChip EZ Reader II; read-out: TBK1_IC50
pIC50: −log10 of the molar value. Counter-ions that a name gives are not always drawn.
metric: pIC50

Solved entries (count: 4):
Endpoint output: pIC50 of COc1cc(Nc2nccc(-c3ccc(OC4CCN(C(=O)[C@H](C)O)CC4(F)F)c(C#N)c3)n2)ccc1N1CCN(C2COC2)CC1 (stereo partly shown) [Example 217] . Value? > 7.00

Name the recorded pIC50 for COc1cc(Nc2nccc(-c3ccc(OC4CCOCC4)c(C#N)c3)n2)ncc1C1CCN(C)CC1 [Example 59, hydrochloride] . 6.00 to 7.00

I have this compound here, COc1cc(Nc2nccc(-c3ccc(OC4CCN(C(=O)[C@H](C)O)CC4(F)F)c(C#N)c3)n2)ccc1C1CCN(C2COC2)CC1 (stereo partly shown) [Example 311] , and I need its recorded pIC50. > 7.00

Reported pIC50, compound COc1nc(Nc2nccc(-c3ccc(OC4CCOCC4)c(C#N)c3)n2)ccc1C(=O)N1CC2COCC2C1 (stereo not shown) [Example 12] : ____ > 7.00

Further cases:
Any idea what pIC50 was measured for Cc1nc(C(=O)N2CCC(Oc3ccc(-c4ccnc(Nc5ccc(N6CCN(C7COC7)CC6)cc5)n4)cc3C#N)CC2)c[nH]1 [Example 274] ? > 7.00

What value of measured pIC50 is listed for COc1nc(Nc2nccc(-c3ccc(OCC4CN(C(=O)[C@@H](C)O)C4)c(C#N)c3)n2)ccc1N1CCN(C2COC2)CC1 [Example 280] ? 6.00 to 7.00

# lookup: pIC50 of COc1cccc(Nc2nccc(-c3ccc(O[C@@H]4CCN(C(=O)[C@H](C)O)CC4(F)F)c(C#N)c3)n2)n1 [Example 241] > 7.00
